Recorded apparent Kd (screen), one value per entry.
# study system: T1, TNFR1 (Homo sapiens, UniProt P19438)
# T1 chain: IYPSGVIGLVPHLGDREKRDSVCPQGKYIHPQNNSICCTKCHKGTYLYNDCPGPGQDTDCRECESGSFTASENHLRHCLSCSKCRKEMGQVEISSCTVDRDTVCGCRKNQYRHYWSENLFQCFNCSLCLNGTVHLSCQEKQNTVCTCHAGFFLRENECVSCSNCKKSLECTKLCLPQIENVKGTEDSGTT
# measurement description: yeast display SC50
Please reply with the bare figure in pM and do not write the unit itself.

Below, each entry is followed by its recorded apparent Kd (screen) result.
binder	reading unit	apparent Kd (screen)
M58Q (designed binder) SMEEEVEKAAKEYEKKKKEAIEKHLEKLKAKDKEAAERFLKELEEAAKEYAKDEAKTQSEEEAKRRAKKYKEKVLLSELSEEEQKEIKEAEEKLVRTILKYVEEAAK	pM	11400
A51Q (designed binder) SMEEEVEKAAKEYEKKKKEAIEKHLEKLKAKDKEAAERFLKELEEAAKEYQKDEAKTMSEEEAKRRAKKYKEKVLLSELSEEEQKEIKEAEEKLVRTILKYVEEAAK	pM	446

Here is the next item to consider.
// query Give the measured apparent Kd (screen) of L75A (designed binder) SMEEEVEKAAKEYEKKKKEAIEKHLEKLKAKDKEAAERFLKELEEAAKEYAKDEAKTMSEEEAKRRAKKYKEKVALSELSEEEQKEIKEAEEKLVRTILKYVEEAAK .
// result 405
